# Test system: SNB-75 CNS
# run.description: NCI-60 one-dose screen, 48 h (100 = growth as untreated, 0 = no growth, -100 = all killed)
# measurement.setup: 10 µM unless noted
Compounds without any hit were thinned out: in the full panel of roughly 83,000, 20% have a hit. Active and inactive are the calls of the source. Rule for the calls: active = growth percent below 10; inactive = the rest.
test.readout: growth

Look up and report measured growth for this entry: COc1ccc(-c2nc3sccn3c2/C=C/C(=O)c2cc(OC)c(OC)c(OC)c2)cc1
37.2% (inactive)

# return recorded growth for input COc1ccncc1C#Cc1cncc(C(=O)Nc2ccc(CN3CCN(C)CC3)c(C(F)(F)F)c2)c1
65.7% (inactive)

Fill in growth for record COc1ccc(C2CC(n3nnnc3-c3ccccc3)=NN2)cc1 (stereo not given)
76.9% (inactive)

Read the entry COc1cc2nc(-c3ccc(-c4nn[nH]n4)cc3)[nH]c(=O)c2cc1OC and write its reported growth.
106% (inactive)

Return the recorded growth value; entry: c1ccc(C2CC(c3cccc(Nc4ccncc4)c3)=NN2c2ccccc2)cc1 (stereo not given)
77.3% (inactive)

---

# System: HCC-2998 colon
# run.description: NCI-60 one-dose screen, 48 h (100 = growth as untreated, 0 = no growth, -100 = all killed)
# measurement.setup: 10 µM unless noted
About 83,000 compounds went through this panel and 20% of them were active in at least one assay; those are over-represented in the sample as a whole.
test.readout: growth (%)
Report the value in % with no unit label.

Give the reported value of growth for this record: Cc1ccc(C(c2c(O)c3cc(Br)ccc3[nH]c2=O)c2c(O)c3cc(Br)ccc3[nH]c2=O)cc1
94.4

Check the records and state growth for CCCCCCN(C)Cc1ccc(OCCOc2ccc(CN(C)CCCCCC)cc2)cc1
-87.5

Name the recorded growth of the item COC(=O)Nc1ccc(NC(=O)OC)cc1 in your answer.
106

Using known records, supply growth for CC(C)Sc1nc(NN)c(C#N)c(-c2ccccc2)n1
100

Give the reported growth for this molecule. COc1cc(NCCCN(CC(C)C)CC(C)C)c2ncccc2c1
86.4

Specify growth for O=C(/C=C/c1ccc[nH]1)c1ccc(-n2ccc(C(F)(F)F)n2)cc1 and stop.
54.7

Please give measured growth of the following entry: COc1cc2c(cc1[N+](=O)[O-])-c1ccc([N+](=O)[O-])cc1/C2=N/NC(N)=S
72.8

Look up and report measured growth for this entry: COc1ccc(-c2nc(N/N=C/c3cccc(Br)c3)nc(N3CCOCC3)c2C#N)cc1
75.4

Return value of growth for input Cn1c(COC(=O)NCCc2ccccn2)nc2c(N3CCOCC3)nc(Cl)nc21 , no commentary.
37.5

Give the reported growth for this molecule. CN1C(=O)N(C)[C@H]2NC(NN)=N[C@H]21
102

# return recorded growth for entry COc1cc(NCC(C)(O)CN(CC(C)C)CC(C)C)c2nc(C)ccc2c1 (stereo unspecified)
75.5

Answer with the recorded growth of CC[C@H](CC[C@@H](C)[C@H]1CC[C@H]2[C@@H]3CC=C4C[C@@H](OCCc5nn[nH]n5)CC[C@]4(C)[C@H]3CC[C@]12C)C(C)C only.
109

Return growth (reported value) for this molecule: Cc1c([N+](=O)[O-])cc(C(C)(C)C)cc1[N+](=O)[O-]
95.2

Specify measured growth for CCCCN(CCCC)CCc1c(C)cc(C)c(CCN(CCCC)CCCC)c1O .
19.6

Return growth for the following molecule: COc1ccc(C2CC(c3cccc(Nc4ccncc4)c3)=NN2c2cc(Cl)cc(Cl)c2)cc1 (stereo unspecified)
-46.5

Tell us which growth value is on record for CN1CCN(Cc2ccc(NC(=O)c3cncc(C#Cc4cnccc4C(F)(F)F)c3)cc2C(F)(F)F)CC1
65.7

For the molecule CC(c1ccccc1)n1ccnc1CO (stereo unspecified) , report growth.
90.6

Supply reported growth belonging to this molecule: Cn1/c(=N/NC(N)=S)ccc2ccccc21
112

Give me measured growth, please, for this molecule: NC(=S)N/N=C/c1ccc(OC(=O)COc2cc(Cl)c(Cl)cc2Cl)cn1
63.7

State, in one line, measured growth of O=C1c2ccccc2-c2c1c1c(NCCCO)nc3ccccc3c1n2Cc1ccccc1
26.1

Supply measured growth of COc1cc2nc(Cc3ccc(C)cc3)[nH]c(=O)c2cc1OC in your reply.
106

---

Provide the reported growth of each item.
# System: SF-295 CNS
# run.description: NCI-60 one-dose screen, 48 h (100 = growth as untreated, 0 = no growth, -100 = all killed)
# measurement.setup: 10 µM unless noted
# Procedure: Cells are grown in 96 well plates and exposed to the test compound for 48 hours. Compounds are tested at a single concentration, which is 10^-5 M for most compounds. The reported endpoint is percent growth (GI% or GIPRCNT), where numbers from 0 - 100% represent growth inhibition, and numbers from -100% - 0 represent cell death. For example, a value of 40 represents 60% growth inhibition. A value of 0 means no net growth occurred over the course of the experiment. […]
The panel holds about 83,000 compounds, 20% with a hit somewhere; the sample as a whole holds those more often.
# number only, unit % dropped from output

Retrieve growth measured for CCCCCN1C=C/C(=C\C(=O)N(C)c2cccc3ccccc23)c2ccccc21 and print it.
97.7

Please list growth recorded for the molecule C=C(C)[C@@H]1CC[C@]2(C(=O)O)CC[C@]3(C)[C@H](CC[C@@H]4[C@@]5(C)C[C@@H](CC#Cc6ccc(Br)cc6)C(=O)C(C)(C)[C@@H]5CC[C@]43C)[C@@H]12
58.9

Could you please provide reported growth for N#CSCC1CC(O)(c2ccccc2)C(c2ccccc2)C(c2ccc(F)cc2)O1 (stereo unspecified) ? Thanks!
52.9

For the molecule COc1ccc(C(O)c2cc3c(N)c(C(=O)Nc4cccc(OC)c4)sc3nc2C)cc1 (stereo unspecified) , report growth.
3.76

Dear colleague, please send me the reported growth for COc1cc2nnn3c4ncccc4c(N=O)c3c2cc1OC when you can.
111

Read off the recorded growth for Cc1cc(C)n(Nc2nc3ccccc3[nH]c2=O)c(=O)c1C#N
95.6

Return value of growth for input COc1cccc2cc(-c3cc4ccccc4[nH]3)/c(=N/C(=S)Nc3ccc(C)cc3)oc12 , no commentary.
79.5

Please report the measured growth for Cc1ccc(C2CC(c3cccc(Nc4ccncc4)c3)=NN2c2ccc(Cl)cc2)cc1 (stereo unspecified)
-85.6

Give a short answer stating reported growth for O=C(O)CCCCCCCCCCCCCCC(=O)O .
101

Tell me growth reported for NC(=O)CN1CCN(c2ccccc2Cl)CC1
97.9

Quick one: give measured growth for CSc1nc(O)c(-c2ccccc2)c(=O)[nH]1
101

---

# Tested on: NCI-H522 lung
# run.description: NCI-60 one-dose screen, 48 h (100 = growth as untreated, 0 = no growth, -100 = all killed)
# measurement.setup: 10 µM unless noted
The panel holds about 83,000 compounds, 20% with a hit somewhere; the sample as a whole holds those more often.
Lab note: cut-off is 90%. Strictly less in growth is Satisfied. Exactly 90% or more is Not satisfied.

For this compound, is growth lower than 90%? O=[N+]([O-])c1cccc(-c2nc(-c3ccc(Cl)cc3Cl)cn2-c2ccccc2)c1
Satisfied

Identify whether the compound Clc1ccc(N2N=C(c3cccc(Nc4ccncc4)c3)CC2c2ccc3c(c2)OCO3)cc1 (stereo not given) records growth below 90%.
Satisfied

Hello, is growth of the following compound strictly smaller than 90%? Cn1c(=O)c2[nH]c(CCCc3nc4c([nH]3)c(=O)n(C)c(=O)n4C)nc2n(C)c1=O
Not satisfied

Say whether its growth is strictly beneath 90%. Entry: Cc1ccc(O)c(C(=O)O)c1
Not satisfied

State whether 90% exceeds growth recorded for COc1cccc(CNCCN2C(=O)c3ccc4c5c(ccc(c35)C2=O)C(=O)N(CCNCc2cccc(OC)c2)C4=O)c1 .
Satisfied

is_below(growth, 90%) for COc1nc(N)nc(-n2c(-c3ccc(C)cc3)nc3ccccc32)c1NCc1ccc(C)cc1 ?
Satisfied

Hi there! Is growth for CCCC1C(C(=O)OCC)=C(N)Oc2cc(O)ccc21 (stereo not given) below 90%, do you know?
Satisfied

# strict comparison: is reported growth < 90%? input = COc1cc2nc(-c3ccc(-c4nn[nH]n4)cc3)[nH]c(=O)c2cc1OC
Not satisfied

Hi there! Is growth for COc1ccc(-c2c(-c3ccccc3)noc2N)cc1OC below 90%, do you know?
Satisfied

---

Task for the reader: assign each of the following molecules its reported growth.
# System: SN12C renal
# run.description: NCI-60 one-dose screen, 48 h (100 = growth as untreated, 0 = no growth, -100 = all killed)
# measurement.setup: 10 µM unless noted
# Protocol: Growth inhibition of the SN12C human tumor cell line is measured as a screen for anti-cancer activity. Cells are grown in 96 well plates and exposed to the test compound for 48 hours. Compounds are tested at a single concentration, which is 10^-5 M for most compounds. The reported endpoint is percent growth (GI% or GIPRCNT), where numbers from 0 - 100% represent growth inhibition, and numbers from -100% - 0 represent cell death. For example, a value of 40 represents 60% growth inhibition. […]
This is part of a sample that, as a whole, favours compounds with a hit. Of some 83,000 tested, about 20% had one in any assay.
I only need the number, in %, no unit after it.

Could you please provide reported growth for CCCCOc1ccc(/C=N/Nc2cc(C)nc3ccc(Cl)cc23)cc1 ? Thanks!
-81.6

Provide growth value for the following molecule: NC(=O)c1cccc(-c2cc(C(N)=O)ccc2Cl)c1
50

Kindly indicate its recorded growth. Item: CC(C)(O)C1CCCN1C(=O)c1ccccc1I (stereo not given)
95

Return the recorded growth value; entry: O=C(O)C(/C=C/c1ccco1)=N\Nc1nc(-c2ccc(Cl)cc2)cs1
86.8

Quote growth reported for CC1(c2ccccc2)NC(=O)N(CC(=O)Nc2cccc(I)c2)C1=O (stereo not given) please.
96.9

Recall and state the measured growth for CN1CCN(c2cc(F)c(NC3=C(Cl)C(=O)c4ncccc4C3=O)c(F)c2)CC1 .
-97.5

Input CC(=O)c1cc2c(N)c(C(=O)Nc3cncc4ccccc34)sc2nc1C , output reported growth.
95.3

Look up and report measured growth for this entry: c1ccc(C2CC(c3cccc(Nc4ccncc4)c3)=NN2c2ccccc2)cc1 (stereo not given)
77.9

Please report the measured growth for O=C(Nc1ccc2ncnc(Nc3ccc(Oc4cccc(F)c4)c(Cl)c3)c2c1)c1ccc(CN2CCOCC2)cc1
39

Recall and state the measured growth for CCNNC(=O)[C@@H]1[C@H](c2cc(OC)c(OC)c(OC)c2)c2cc3c(cc2[C@H](O)[C@H]1CO)OCO3 .
24

Using known records, supply growth for Clc1ccc(N2N=C(c3cccc(Nc4ccncc4)c3)CC2c2ccc(Br)cc2)cc1 (stereo not given)
54.3

Please give the documented growth of COc1ccc(/C=C\c2nc3ccccc3s2)cc1OP(=O)(O)O
55.4

Return the recorded growth value; entry: CCOc1cc(CNc2ccc(N3CCOCC3)c(C(=O)O)c2)ccc1OC
94.2

Find the measured growth of COc1ccc(C(O)c2cc3c(N)c(C(=O)Nc4cccc(Br)c4C)sc3nc2C)cc1 (stereo not given) and report it.
17.9

For CS(=O)(=O)OCCN(CCOS(C)(=O)=O)c1ccc(/C=N/Nc2ccc([N+](=O)[O-])cc2[N+](=O)[O-])cc1 , write its growth.
77.6

For the molecule CCN(CCNc1cc(OC)cc2cccnc12)CCc1ccccc1 , give its measured growth value.
91.3

State its growth for this molecule: Cc1ccc2[nH]c(=S)n(-c3ccc(S(=O)(=O)Nc4ccc(Cl)nn4)cc3)c(=O)c2c1
96.9

# return recorded growth for entry CC(Oc1ccc(C(=O)NS(=O)(=O)C(C)(C)C)cc1C(F)(F)F)c1ccc(Oc2ccccc2)cn1 (stereo not given)
86.1

Give growth for the following molecule: CSc1nc(O)c(-c2ccccc2)c(=O)[nH]1
96.9

For the molecule COc1nccnn1 , give its measured growth value.
97.1

Report growth for O=C(Nc1cccc(Cl)c1)Oc1c(Br)c(Br)c(Br)c(Br)c1Br
92.7

Fill in growth for record Nc1ncc(C#Cc2cncc(NC(=O)c3cccc(C(F)(F)F)c3)c2)c2cccnc12
50.4

Consider the molecule COc1cc2nc(-c3ccc(-c4nn[nH]n4)cc3)[nH]c(=O)c2cc1OC and give its recorded growth.
140

Name the recorded growth of the item Cc1cccc(C)c1-c1cc(Cc2ccc(Cl)cc2)c(=O)[nH]n1 in your answer.
89.5

State, in one line, measured growth of C=C1C(=O)O[C@H]2[C@H]1CC/C(COC(=O)CCCCCC(=O)OC/C1=C/CC[C@@]3(C)O[C@H]3[C@H]3OC(=O)C(=C)[C@@H]3CC1)=C\CC[C@@]1(C)O[C@@H]21
0.951

Give a short answer stating reported growth for CCCCCCCCN1C(=O)/C(=c2\sc3n(c2=O)C2C(NN=3)N(CC)C(=O)N2CC)c2ccccc21 (stereo not given) .
86.1

Identify measured growth associated with COc1ccc2nc(N=Nc3c(O)ccc4ccccc34)sc2c1
50.4

Return value of growth for input COc1c(Cl)cc(Cl)c2ccc(C=C3C(=O)N(C)C(=O)N(C)C3=O)nc12 , no commentary.
99.3

Supply measured growth of NC(=S)N/N=C(/c1ccccc1)c1ccccc1N in your reply.
85

Recall and state the measured growth for COc1cc2nc(-c3ccc(C(F)(F)F)cc3)cc(OCCCN3CCC(O)CC3)c2cc1OC .
37.4

Supply growth value. Item: CN(C)CCCn1c2c(c3ccc(-c4ccn[nH]4)cc3c1=O)C(=O)c1ccccc1-2
5.41

Input CS(=O)(=O)c1ccc(-c2cc3c(oc2=O)-c2ccccc2OC3O)cc1 (stereo not given) , output reported growth.
104

Please look at this molecule and report its growth: O=C(CN1CCOCC1)Nc1ccc2ncnc(Nc3ccc(OCc4cccc(F)c4)c(Cl)c3)c2c1
48.1

Quote growth reported for Cc1ccc(C(c2c(O)c3cc(Br)ccc3[nH]c2=O)c2c(O)c3cc(Br)ccc3[nH]c2=O)cc1 please.
94.5

Provide only the value of recorded growth for CC(C)C1C2=C(NCCN1C(=O)Cc1ccccc1)C(C)(C)N(Cc1ccccc1)C2=O (stereo not given)
98.5

Supply measured growth of O=C(Nc1sc2c(c1C(=O)O)CCCC2)c1cccc(C(F)(F)F)c1 in your reply.
95.6

Report growth for O=C(OCc1nc2nc(Cl)nc(N3CCOCC3)c2[nH]1)n1ccnc1
8.48

For the molecule CNC(=O)c1c(NC(=O)c2ccc(C(C)C)cc2)sc2c(CN(C)C)c(O)ccc12 , give its measured growth value.
99.4

Entry COc1ccc(Nn2c(SCC(=O)Nc3nc(-c4ccc(Cl)cc4)cs3)nc(C)c2C)cc1 needs its growth filled in; supply it.
67.2

Consider the molecule CCOC(=O)c1cnc2c(cnn2CC)c1NN=C(C)C . State its measured growth.
105
